Test system: Influenza A virus
Assay: Antiinfluenza activity against Influenza A virus (A/Puerto Rico/8/1934(H1N1)) assessed as inhibition of viral replication
Assay type: functional, organism-based
measurement-name: pEC50
One number for each entry, as −log10 of the molar value.

The compound listed as `CC12CC3CC(NCc4ccccc4)(CC(C1)c1ccccc13)C2` shows pEC50 equal to 5.00

----------
System: Trypanosoma brucei
Test: Antitrypanosomal activity against bloodstream form of Trypanosoma brucei 427 after 48 hrs by hemocytometer analysis
Type: functional, organism-based
Settings: Trypanosoma brucei, 427, 48 h
Give IC50 for every item shown.
Numbers only, in µM.

Past entries and their recorded results:
C#CCNC12CC3CC(C)(CC(C1)c1ccccc13)C2 = 1.99
CC12CC3CC(NCc4ccccc4)(CC(C1)c1ccccc13)C2 = 3
C#CCN(CC#C)C12CC3CC(C)(CC(C1)c1ccccc13)C2 = 13.4
CNC12CC3CC(C)(CC(C1)c1ccccc13)C2 = 4.46
CN(Cc1ccccc1)C12CC3CC(C)(CC(C1)c1ccccc13)C2 = 5.25
CN(C)C12CC3CC(C)(CC(C1)c1ccccc13)C2 = 1.99

Now, please, on to the next compound.
Looking up `CC12CC3CC(N)(CC(C1)c1ccccc13)C2` , I see its IC50 listed as 4.8

----------
Give pEC50 for every item shown.
Test system: Vesicular stomatitis virus
Test: Antiviral activity against VSV in HeLa cells assessed as inhibition of viral replication
Format: functional, organism-based
One number for each entry, as −log10 of the molar value.

C#CCN(CC#C)C12CC3CC(C)(CC(C1)c1ccccc13)C2 = 5.40

Now let's try a different one.
Lab book: pEC50 of `CC12CC3CC(N4CCCCC4)(CC(C1)c1ccccc13)C2` noted as 4.27

----------
Assay: Selectivity index, ratio of cytotoxicity for HeLa cells to ratio of EC50 for Vesicular stomatitis virus
Format: toxicity, cell-based
Conditions: human, read-out: Selectivity Index
measurement-name: selectivity ratio

Lab note: measured selectivity ratio of `C#CCN(CC#C)C12CC3CC(C)(CC(C1)c1ccccc13)C2` was 25
